# inhibition per record follows
# System: Fatty acid-binding protein, adipocyte (Homo sapiens, UniProt P15090)
# Test Details: Displacement of 1,8-ANS from His6-tagged FABP4 (unknown origin) expressed in Escherichia coli BL21(DE3) cells at 25 uM by fluorescence assay relative to control
# Sequence (P15090 2-132 limits assumed): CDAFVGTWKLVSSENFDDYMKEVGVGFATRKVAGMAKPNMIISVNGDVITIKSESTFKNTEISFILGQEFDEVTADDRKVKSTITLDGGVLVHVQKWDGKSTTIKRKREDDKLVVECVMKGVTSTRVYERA
Parameter: inhibition (%)

1. O=C(O)C1CCCCC1C(=O)Nc1ccccc1-c1ccccc1 (stereo not given)    27.7
2. CCc1ccccc1NC(=O)C(OC(=O)c1ccccc1)C(OC(=O)c1ccccc1)C(=O)O (stereo not given)    2.1
3. O=C(O)C(Cc1ccc(O)cc1)N1C(=O)c2c(Cl)c(Cl)c(Cl)c(Cl)c2C1=O (stereo not given)    6
4. COc1ccc(CN(C(=O)COc2cc(C)ccc2C(C)C)c2ccccc2C(=O)O)cc1    18.5
5. Cc1ccc(C(=O)C2=C(O)C(=O)N(CCCC(=O)O)C2c2ccccc2F)cc1 (stereo not given)    17.1

====

# System: Fatty acid-binding protein, adipocyte (Homo sapiens)
# Test Details: Binding affinity to His6-tagged FABP4 (unknown origin) expressed in Escherichia coli BL21(DE3) cells assessed as change in melting temperature at 50 uM after 30 mins by SYPRO orange dye based thermal stability shift assay
Reported ΔTm values for the following molecules.
Parameter: ΔTm

1) Cc1ccc(C)c(NC(=O)C2CCC(C)(C(=O)O)C2(C)C)c1 (stereo unspecified)    0.1 °C
2) CCOc1cc(/C=C2/SC(=S)N(CCC(=O)O)C2=O)ccc1O    -1.8 °C
3) Cc1ccc(S(=O)(=O)NC(CC(=O)O)c2ccccc2)c(C)c1 (stereo unspecified)    0.2 °C
4) CCCCCCCn1c(SCC(=O)O)nc2c1c(=O)[nH]c(=O)n2C    2 °C
5) O=C(O)CSc1cc(NS(=O)(=O)c2ccc(Cl)cc2)c2ccccc2c1O    -2.8 °C
6) Cc1oc2ccc(NS(=O)(=O)c3ccccc3)cc2c1C(=O)O    0.2 °C
7) Cc1ccc(C(C[N+](=O)[O-])c2c(-c3ccccc3C)n[nH]c2O)cc1 (stereo unspecified)    -3.7 °C
8) O=C(O)CC/C(=N/NC(=O)c1c[nH]c2ccccc12)c1ccccc1    -0.8 °C
9) CCCCC/C=C\C/C=C\CCCCCCCC(=O)O    1.1 °C
10) CC(=O)NC(Cc1ccc(O)cc1)C(=O)O (stereo unspecified)    -0.1 °C
11) Cc1ccc(/N=C2/NC(=O)/C(=C/c3cccn3-c3cccc(C(=O)O)c3)S2)cc1C    -9 °C

====

# System: Fatty acid-binding protein, adipocyte (Homo sapiens, UniProt P15090)
# Test Details: Displacement of 1,8-ANS from His6-tagged FABP4 (unknown origin) expressed in Escherichia coli BL21(DE3) cells at 25 uM by fluorescence assay relative to control
Listed next: entries and their corresponding inhibition.
Parameter: inhibition (%)

1) Cc1ccc(C)c(NC(=O)C2CCC(C)(C(=O)O)C2(C)C)c1 (stereo not given)    0.5
2) O=C(O)C1C2CC(Sc3ccccc3[N+](=O)[O-])C(Cl)C2c2cccc3c2N1CC1CC=CC31 (stereo not given)    60.2
3) O=C(O)c1ccc(S(=O)(=O)Nc2ccc(O)c(Sc3nc4ccccc4s3)c2)cc1    7.2
4) Cc1ccc(C(C[N+](=O)[O-])c2c(-c3ccccc3C)n[nH]c2O)cc1 (stereo not given)    5.8
5) O=C(O)CCSc1nc2ccccc2n1Cc1ccccc1    27.9

====

# System: Fatty acid-binding protein, adipocyte (Homo sapiens)
Hi! Just check whether Ki is below 3 µM. Below gives Fulfilled, equal or above gives Not fulfilled.

1) Cc1ccc(/N=C2/NC(=O)/C(=C/c3cccn3-c3cccc(C(=O)O)c3)S2)cc1C    Not fulfilled
2) O=C(O)C1C2CC(Sc3ccccc3[N+](=O)[O-])C(Cl)C2c2cccc3c2N1CC1CC=CC31 (stereo unspecified)    Not fulfilled
3) O=C(O)c1cccc2c1NC(c1ccccc1[N+](=O)[O-])C1CC(Sc3ccccc3[N+](=O)[O-])C(Cl)C21 (stereo unspecified)    Not fulfilled
4) O=C(O)CSc1cc(NS(=O)(=O)c2ccc(Cl)cc2)c2ccccc2c1O    Fulfilled
5) CCOc1cc(/C=C2/SC(=S)N(CCC(=O)O)C2=O)ccc1O    Fulfilled
6) O=C(O)C1C2CC=CC2c2cc(Cl)cc3c2N1CC1CC=CC31 (stereo unspecified)    Fulfilled

====

# System: UniProt:P15090
# Test Details: Displacement of 1,8-ANS from His6-tagged FABP4 (unknown origin) expressed in Escherichia coli BL21(DE3) cells at 25 uM by fluorescence assay relative to control
Parameter: inhibition (%)

1. O=c1cc(O)c2c(=O)n(N(c3ccccc3)c3ccccc3)c3c(c2o1)CCCC3    0.9
2. O=C(O)C1C2CC=CC2c2cc(Br)cc3c2N1CC1CC=CC31 (stereo unspecified)    95.1
3. CCCCCCCn1c(SCC(=O)O)nc2c1c(=O)[nH]c(=O)n2C    13
4. CCCCCC(=O)N(CN1C(=O)c2ccccc2C1=O)c1cccc(C(=O)O)c1    -1.9
5. CC(=O)NC(Cc1ccc(O)cc1)C(=O)O (stereo unspecified)    -3.6
6. COc1cccc(-c2[nH]c3ccccc3c2C2c3ccccc3C(=O)N2CCC(=O)O)c1 (stereo unspecified)    6.3

====

# System: Fatty acid-binding protein, adipocyte (Homo sapiens)
# Test Details: Binding affinity to His6-tagged FABP4 (unknown origin) expressed in Escherichia coli BL21(DE3) cells assessed as change in melting temperature at 50 uM after 30 mins by SYPRO orange dye based thermal stability shift assay
Reported ΔTm is given for each of the following molecules.
Parameter: ΔTm (°C)

1) O=c1cc(O)c2c(=O)n(N(c3ccccc3)c3ccccc3)c3c(c2o1)CCCC3    0.3
2) CN(CC(=O)O)c1ncc(-c2nnnn2-c2ccccc2)c(-c2ccccc2Cl)n1    0
3) CCCCCC(=O)N(CN1C(=O)c2ccccc2C1=O)c1cccc(C(=O)O)c1    -0.2
4) COc1cccc(-c2[nH]c3ccccc3c2C2c3ccccc3C(=O)N2CCC(=O)O)c1 (stereo unspecified)    1.1
5) CCCCCCCC/C=C\CCCCCCCC(=O)O    3.3
6) O=C(Nc1cc(Cl)ccc1Cl)/C(=N\Nc1ccccc1C(=O)O)C(=O)c1ccccc1    0.3
7) O=C(O)c1ccc(S(=O)(=O)Nc2ccc(O)c(Sc3nc4ccccc4s3)c2)cc1    0.1
8) Cc1cc2c3c(c1)C1C=CCC1C(C(=O)O)N3CC1CC=CC21 (stereo unspecified)    6.2
9) Cc1ccc(-n2c(SCC(=O)Nc3c(C)cccc3C)nc(O)cc2=O)cc1    0
10) O=C(O)C(Cc1ccc(O)cc1)N1C(=O)c2c(Cl)c(Cl)c(Cl)c(Cl)c2C1=O (stereo unspecified)    0.5
11) COc1ccc(C2C(C(=O)c3ccc(C)cc3)=C(O)C(=O)N2CCCC(=O)O)cc1OC (stereo unspecified)    1
12) O=C(O)C1C2CC=CC2c2c3c(cc4ccccc24)C2C=CCC2CN31 (stereo unspecified)    7.5
13) CCc1c(-c2ccccc2)c(-c2ccccc2)nn1-c1ccccc1-c1cccc(OCC(=O)O)c1    10.6
14) O=C(O)COc1ccc(Br)cc1/C=C1\S/C(=N\c2ccc(Cl)cc2)NC1=O    -0.6
15) O=C(O)CCC(=O)Nc1ccccc1C(=O)N1CCCCCC1    -0.1
16) CCc1ccccc1NC(=O)C(OC(=O)c1ccccc1)C(OC(=O)c1ccccc1)C(=O)O (stereo unspecified)    0.5
17) Cc1[nH]nc2c1C1(C(=O)N(C(C)C(=O)O)c3ccccc31)C(C#N)=C(N)O2 (stereo unspecified)    0.1
18) O=C(O)CCSc1nc2ccccc2n1Cc1ccccc1    2.8
19) Cc1cc(=O)n2c3c(cc(S(=O)(=O)NCc4ccc(C(=O)O)cc4)cc13)CC2    0.8
20) CN1C(=O)/C(=N/c2cccc(C(=O)O)c2)S/C1=C\c1cccs1    -0.3
21) CCOC(=O)c1cnc2c(ccc3ccccc32)c1Nc1cccc(C(=O)O)c1    0.2

====

# System: UniProt P15090
# Test Details: Displacement of 1,8-ANS from His6-tagged FABP4 (unknown origin) expressed in Escherichia coli BL21(DE3) cells at 25 uM by fluorescence assay relative to control
Parameter: inhibition (%)

1) COc1ccccc1N1CCN(C(=O)c2ccccc2NC(=O)C2CCCCC2C(=O)O)CC1 (stereo not given)    -5
2) Cc1ccc(C(=O)/C(=C\Nc2cc(Cl)ccc2C(=O)O)c2nnnn2-c2ccc(C)cc2)cc1    -2.5
3) O=C(O)c1cccc2c1NC(c1ccccc1[N+](=O)[O-])C1CC(Sc3ccccc3[N+](=O)[O-])C(Cl)C21 (stereo not given)    41.5
4) O=C(O)CCC(=O)Nc1ccccc1C(=O)N1CCCCCC1    3.4
5) Cc1ccc(/N=C2/NC(=O)/C(=C/c3cccn3-c3cccc(C(=O)O)c3)S2)cc1C    36.8
